B1: library; a variant is named by its letters at N, in order (parent)
chain: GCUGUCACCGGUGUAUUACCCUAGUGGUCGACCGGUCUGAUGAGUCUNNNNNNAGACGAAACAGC

Variants of: B1
experiment-description: normalized RNA/DNA level with ligand (relative to sTRSVctl = 100) (log10 (% of sTRSVctl)); ligand: hypoxanthine (xanthine aptamer); higher = less ribozyme self-cleavage, higher mRNA level
reported-conditions: ligand concentration (+) RNA-Seq: 5 mM, HEK293T, reporter: mCherry (pCS4076), ligand present: yes
quantity-kind: normalized RNA/DNA level with ligand (log10)
Please respond with just the number, no unit label.

Solved entries (count: 10):
| sequence | meas-value |
| --- | --- |
| GCUGUCACCGGUGUAUUACCCUAGUGGUCGACCGGUCUGAUGAGUCUGAGAUUAGACGAAACAGC [GAGAUU] | 1.92 |
| GCUGUCACCGGUGUAUUACCCUAGUGGUCGACCGGUCUGAUGAGUCUACCAACAGACGAAACAGC [ACCAAC] | 1.93 |
| GCUGUCACCGGUGUAUUACCCUAGUGGUCGACCGGUCUGAUGAGUCUGCGUGGAGACGAAACAGC [GCGUGG] | 1.64 |
| GCUGUCACCGGUGUAUUACCCUAGUGGUCGACCGGUCUGAUGAGUCUUCGCAUAGACGAAACAGC [UCGCAU] | 1.87 |
| GCUGUCACCGGUGUAUUACCCUAGUGGUCGACCGGUCUGAUGAGUCUCUCUGAAGACGAAACAGC [CUCUGA] | 1.96 |
| GCUGUCACCGGUGUAUUACCCUAGUGGUCGACCGGUCUGAUGAGUCUAUUACGAGACGAAACAGC [AUUACG] | 1.84 |
| GCUGUCACCGGUGUAUUACCCUAGUGGUCGACCGGUCUGAUGAGUCUCCACUCAGACGAAACAGC [CCACUC] | 2.02 |
| GCUGUCACCGGUGUAUUACCCUAGUGGUCGACCGGUCUGAUGAGUCUCCCUGAAGACGAAACAGC [CCCUGA] | 1.92 |
| GCUGUCACCGGUGUAUUACCCUAGUGGUCGACCGGUCUGAUGAGUCUAUUUCGAGACGAAACAGC [AUUUCG] | 1.9 |
| GCUGUCACCGGUGUAUUACCCUAGUGGUCGACCGGUCUGAUGAGUCUUGUGGUAGACGAAACAGC [UGUGGU] | 1.89 |

Given item GCUGUCACCGGUGUAUUACCCUAGUGGUCGACCGGUCUGAUGAGUCUUGCAAUAGACGAAACAGC [UGCAAU] , the value recorded as its normalized RNA/DNA level with ligand (log10) is 1.95

Given item GCUGUCACCGGUGUAUUACCCUAGUGGUCGACCGGUCUGAUGAGUCUGGAUUCAGACGAAACAGC [GGAUUC] , the value recorded as its normalized RNA/DNA level with ligand (log10) is 1.98

Given item GCUGUCACCGGUGUAUUACCCUAGUGGUCGACCGGUCUGAUGAGUCUUUGGCUAGACGAAACAGC [UUGGCU] , the value recorded as its normalized RNA/DNA level with ligand (log10) is 1.98

This collection of values is drawn from the supplement of paper PMC6757056.
